For each record, write down the corresponding protein stability index.
B1: TPPP (parent)
chain: LCKDCQVIDGRNVTVTDVDIVFSK

Variants of: B1
Experiment: protein stability index of a GFP-peptide fusion (GPS, HEK-293T) (PSI 1-6); higher = more stable;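 further: lentivirally expressed fusions sorted by FACS into six bins by GFP to DsRed ratio, PSI derived from sequencing read proportions per bin multiplied by bin number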
Details: c terminus: a fixed tail appended
Response field accepts a number only; no unit should be typed.

Summary for this variant, S23N : protein stability index is 2.75

Summary for this variant, I20P : protein stability index is 3.14

Summary for this variant, R11G : protein stability index is 2.56

Summary for this variant, G10A : protein stability index is 2.31

Summary for this variant, I20H : protein stability index is 2.91

Summary for this variant, S23W : protein stability index is 2.31

Summary for this variant, N12M : protein stability index is 1.73

Summary for this variant, K24P : protein stability index is 2.62

Summary for this variant, N12G : protein stability index is 2.48

Summary for this variant, T14I : protein stability index is 2.76

Summary for this variant, F22K : protein stability index is 3.94

Summary for this variant, V7K : protein stability index is 2.46

Summary for this variant, K3Y : protein stability index is 1.91

Summary for this variant, D19K : protein stability index is 1.39

Summary for this variant, V7T : protein stability index is 2.87

Summary for this variant, D17P : protein stability index is 2.21

Summary for this variant, V7G : protein stability index is 2.59

Summary for this variant, G10S : protein stability index is 2.74

Summary for this variant, T14R : protein stability index is 2.4

Summary for this variant, T14K : protein stability index is 2.48

Summary for this variant, F22G : protein stability index is 4.09

Summary for this variant, T14A : protein stability index is 2.81
